# Experiment Notes: ATG_DR4_LXR_CIS: Attagene CIS-FACTORIAL HepG2 Assay for human Liver X Receptor (LXR), DR4 submotif (AID 2282929)
# Test Context: HepG2 Attagene DR4 cis-reporter, mRNA transcription; actives raise or lower the signal
Calls of active or inactive are those of the source. Rule for the calls: active = hit-call score of the fitted dose curve at least 0.9, where 1 is the maximum; inactive = score below 0.9.
Reported Metric: AC50

Known AC50 results, listed for orientation:
C/C=C(\C)C(=O)OCCc1ccccc1 : inactive
O=C(O)COCC(=O)O : inactive
CN(C)C(=O)Nc1ccc(Oc2ccc(Cl)cc2)cc1 : 72 µM (active)
Nc1ccc(NCCO)c([N+](=O)[O-])c1 : inactive
COS(=O)(=O)O : inactive
COc1ccccc1[N+](=O)[O-] : inactive
CCCCCCC(C)(C)S : inactive

What does the record list as AC50 for O=C1NC2NC(=O)NC2N1 (stereo not drawn) ?
inactive

###

# Experiment Notes: ATG_AP_2_CIS: Attagene CIS-FACTORIAL HepG2 Assay for human Activator Protein 2 (AP-2) (AID 2282932)
# Test Context: HepG2 AP-2 cis-reporter, Attagene transcription factor profiling; actives raise or lower the signal
Activity calls are given as the source filed them. The calls were made as follows: active = hit-call score of the fitted dose curve at least 0.9, where 1 is the maximum; inactive = score below 0.9.
Lab note: assign the record to one of 1 for active, 0 for inactive

CC(C)CCCCCCCCCCCCCCC(=O)O : 0

Identify the outcome logged in this assay for the compound shown: "c1ccc(Oc2ccccc2)cc1"
0

Identify the outcome logged in this assay for the compound shown: "CCCN(CCC)S(=O)(=O)c1ccc(C(=O)O)cc1"
0

Identify the outcome logged in this assay for the compound shown: CCCC(O)C(O)CO (stereo not given)
0

Identify the outcome logged in this assay for the compound shown: CCCCCCCCCCCCCC(=O)OCC(O)CO (stereo not given)
0

Identify the outcome logged in this assay for the compound shown: CC(=O)C(C)O (stereo not given)
0

Identify the outcome logged in this assay for the compound shown: "C=CC(=O)OCCCC"
0

Identify the outcome logged in this assay for the compound shown: "C=CCOC(=O)CCCCCC"
0

Identify the outcome logged in this assay for the compound shown: C=CC(C)(O)CCC=C(C)C (stereo not given)
0

Identify the outcome logged in this assay for the compound shown: "N#Cc1ccc(CC(=O)c2cccc(C(F)(F)F)c2)cc1"
0

Identify the outcome logged in this assay for the compound shown: C=C(C)C(=O)OCCOC1CC2CC1C1C=CCC21 (stereo not given)
0

###

# Read-out: Monocyte Chemoattractant Protein-1 (MCP1), CCL2 (gene 6347)
# Experiment Notes: BSK_4H_MCP1: BioMAP Diversity Plus: 4H Assay for Monocyte Chemoattractant Protein-1 (MCP1) Biomarker Activity (AID 2283018)
# Test Context: primary human endothelial cells (HUVEC); actives raise or lower the signal
Activity calls are given as the source filed them. How the source made its calls: active means hit-call score of the fitted dose curve at least 0.9, where 1 is the maximum; inactive means score below 0.9.
Lab note: assign the record to one of active, inactive

Reference set (10 entries):
CSCCC=O : inactive
CCCCOC(=O)CCCCCCCC(=O)OCCCC : inactive
CCCCCCC(CO)CCCC (configuration not stated) : inactive
Oc1c(Cl)cc(Cl)c(Cl)c1Cc1c(O)c(Cl)cc(Cl)c1Cl : active
c1ccc(CCc2ccccc2)cc1 : active
CCN(CC)C(=O)N(CC)CC : inactive
C=C(C)[C@H]1CC=C(C)C(=O)C1 : inactive
CS(=O)(=O)OCCCCOS(C)(=O)=O : inactive
CCCCCC(C=O)=Cc1ccccc1 : active
COc1ccc(CCN2CCC(Nc3nc4ccccc4n3Cc3ccc(F)cc3)CC2)cc1 : active

Identify the outcome logged in this assay for the compound shown: "O=C(Nc1ccc2c(O)c(N=Nc3ccc(N=Nc4ccc(S(=O)(=O)O)cc4)cc3)c(S(=O)(=O)O)cc2c1)c1ccccc1"
inactive

Identify the outcome logged in this assay for the compound shown: CC(C=O)Cc1ccc(C(C)(C)C)cc1 (configuration not stated)
active

Identify the outcome logged in this assay for the compound shown: "IC(I)I"
inactive

Identify the outcome logged in this assay for the compound shown: "CN(c1nccc(=O)[nH]1)C1CCN(c2nc3ccccc3n2Cc2ccc(F)cc2)CC1"
inactive

Identify the outcome logged in this assay for the compound shown: "O=CN1CCOCC1"
inactive

Identify the outcome logged in this assay for the compound shown: "Cc1cc(CCC(=O)OCCOCCOCCOC(=O)CCc2cc(C)c(O)c(C(C)(C)C)c2)cc(C(C)(C)C)c1O"
active

Identify the outcome logged in this assay for the compound shown: CC(CN=Cc1ccccc1O)N=Cc1ccccc1O (configuration not stated)
inactive

###

# Subject Of Test: Estrogen receptor beta (Homo sapiens)
# Experiment Notes: OT_ER_ERbERb_0480: Odyssey Thera (OT) 8-hour HEK293T Protein-Complementation Assay for Estrogen Receptor-beta/-beta Homodimer (AID 2283357);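 note: active means signal gain over DMSO baseline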
Inconclusive results are not listed. Active and inactive are the calls of the source. Rule for the calls: active = hit-call score of the fitted dose curve at least 0.9, where 1 is the maximum; inconclusive = response in the unintended direction; inactive = score below 0.9.
Lab note: assign the record to one of true (1) for active, false (0) for inactive

Reference set (2 entries):
O=[N+]([O-])c1ccc(O)cc1C(F)(F)F : true (1)
OCC#CCO : false (0)

Identify the outcome logged in this assay for the compound shown: "ON=C1CCCCC1"
false (0)

Identify the outcome logged in this assay for the compound shown: "CCc1cc(Cc2cc(CC)cc(C(C)(C)C)c2O)c(O)c(C(C)(C)C)c1"
false (0)

Identify the outcome logged in this assay for the compound shown: "OC[C@H]1O[C@@H]2O[C@H]3[C@H](O)[C@@H](O)[C@@H](O[C@H]4[C@H](O)[C@@H](O)[C@@H](O[C@H]5[C@H](O)[C@@H](O)[C@@H](O[C@H]6[C@H](O)[C@@H](O)[C@@H](O[C@H]7[C@H](O)[C@@H](O)[C@@H](O[C@H]8[C@H](O)[C@@H](O)[C@@H](O[C@H]9[C@H](O)[C@@H](O)[C@@H](O[C@H]1[C@H](O)[C@H]2O)O[C@@H]9CO)O[C@@H]8CO)O[C@@H]7CO)O[C@@H]6CO)O[C@@H]5CO)O[C@@H]4CO)O[C@@H]3CO"
false (0)

Identify the outcome logged in this assay for the compound shown: C=C(C)C(=O)OCCOC1CC2CC1C1C=CCC21 (centres undefined)
false (0)

Identify the outcome logged in this assay for the compound shown: "CCC(=O)O[C@@H]1C[C@H]2CC[C@]1(C)C2(C)C"
false (0)

Identify the outcome logged in this assay for the compound shown: "C=Cc1ccc(C)cc1"
false (0)

Identify the outcome logged in this assay for the compound shown: "Cc1cc(S(=O)(=O)O)ccc1N=Nc1c(O)ccc2ccccc12"
false (0)

###

# Read-out: Tissue Factor, F3 (gene 2152)
# Experiment Notes: BSK_CASM3C_TissueFactor: BioMAP Diversity Plus: CASM3C Assay for Tissue Factor Biomarker Activity (AID 2283052);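 note: cell surface tissue factor protein level read by ELISA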
# Test Context: primary human coronary artery smooth muscle cells; actives raise or lower the signal
Active and inactive are the calls of the source. Rule for the calls: active = hit-call score of the fitted dose curve at least 0.9, where 1 is the maximum; inactive = score below 0.9.
Reported Metric: AC50

O=C(Nc1ccc2c(O)c(N=Nc3ccc(N=Nc4ccc(S(=O)(=O)O)cc4)cc3)c(S(=O)(=O)O)cc2c1)c1ccccc1 : inactive
CN(C)C(=S)SC(=S)N(C)C : inactive
Clc1cc(Cl)c(-c2c(Cl)c(Cl)cc(Cl)c2Cl)cc1Cl : inactive
c1ccc(CCc2ccccc2)cc1 : 20 µM (active)
C=CC(C)(O)CCC=C(C)C (configuration not stated) : inactive
CN(c1nccc(=O)[nH]1)C1CCN(c2nc3ccccc3n2Cc2ccc(F)cc2)CC1 : inactive
IC(I)I : inactive
CCCCN(CCCC)C(=O)N(CCCC)CCCC : 11.7 µM (active)
CCCCCCCCCCCCCCCC(=O)OC/C=C(C)/C=C/C=C(C)/C=C/C1=C(C)CCCC1(C)C : inactive
CCC(C)c1cc([N+](=O)[O-])cc([N+](=O)[O-])c1OC(=O)OC(C)C (configuration not stated) : 12.1 µM (active)

What does the record list as AC50 for "O=C1c2ccccc2C(=O)c2c(O)ccc(O)c21" ?
inactive

What does the record list as AC50 for "CCOC(=O)C(C#N)=C(c1ccccc1)c1ccccc1" ?
inactive

###

# Subject Of Test: CCAAT/enhancer-binding protein beta (Homo sapiens)
# Experiment Notes: ATG_C_EBP_CIS: Attagene CIS-FACTORIAL HepG2 Assay for human CCAAT/Enhancer Binding Protein (C/EBP) beta (AID 2282927)
# Test Context: HepG2 Attagene cis-factorial transcription factor reporter; actives raise or lower the signal
# Protocol: ATG_CIS is a cell-based, multiplexed-readout assay that uses HepG2, a human liver cell line, with measurements taken at 24 hours after chemical dosing in a 24-well plate.ATG_C_EBP_CIS is one of 52 assay component(s) measured or calculated from the ATG_CIS assay. […] This assay endpoint, ATG_C_EBP_CIS, was analyzed with bidirectional fitting relative to DMSO as the negative control and baseline of activity. […]
Activity calls are given as the source filed them. Rule for the calls: active = hit-call score of the fitted dose curve at least 0.9, where 1 is the maximum; inactive = score below 0.9.
Lab note: assign the record to one of true (active), false (inactive)

Reference set (5 entries):
Oc1ccc2cc(SSc3ccc4cc(O)ccc4c3)ccc2c1 : true
O=C(O)CCCCCCCCCCCC(=O)O : false
NCc1ccco1 : false
Cc1c(C2(c3cc(Br)c(O)c(Br)c3C)OS(=O)(=O)c3ccccc32)cc(Br)c(O)c1Br : false
O=c1c(O)c(-c2ccc(O)cc2)oc2cc(O)cc(O)c12 : false

Now consider a different compound.
Identify the outcome logged in this assay for the compound shown: "O=Cc1ccccc1S(=O)(=O)O"
false
